Source listed as PubChem BioAssay (NCI).

System: OVCAR-8 ovarian
Assay: NCI tumour cell line growth inhibition, 48 h; in the data active means GI50 below about 0.43 µM; inactive means the rest
The reply should name one outcome from true (1) = active, false (0) = inactive

Which outcome was assigned to `Cc1cc(NCCCNc2ccnc3cc(Cl)ccc23)nc(N2CCN(C)CC2)n1` in this test?
false (0)

Which outcome was assigned to `O=c1c2ccccc2c(Br)c(Br)c2ccccc12` in this test?
false (0)

Which outcome was assigned to CC(=O)N1N=C(c2ccc(Nc3nc(Nc4ccc(Cl)cc4)nc(Nc4ccc(Cl)cc4)n3)cc2)CC1c1ccc([N+](=O)[O-])cc1 (centres undefined) in this test?
false (0)

Which outcome was assigned to `COc1cc2cc(C(=O)CCC(=O)O)sc2cc1OC` in this test?
false (0)
